- ASSAY SYSTEM: Pyruvate kinase (Staphylococcus aureus (strain MRSA252))
- Sequence (Q6GG09 whole entry): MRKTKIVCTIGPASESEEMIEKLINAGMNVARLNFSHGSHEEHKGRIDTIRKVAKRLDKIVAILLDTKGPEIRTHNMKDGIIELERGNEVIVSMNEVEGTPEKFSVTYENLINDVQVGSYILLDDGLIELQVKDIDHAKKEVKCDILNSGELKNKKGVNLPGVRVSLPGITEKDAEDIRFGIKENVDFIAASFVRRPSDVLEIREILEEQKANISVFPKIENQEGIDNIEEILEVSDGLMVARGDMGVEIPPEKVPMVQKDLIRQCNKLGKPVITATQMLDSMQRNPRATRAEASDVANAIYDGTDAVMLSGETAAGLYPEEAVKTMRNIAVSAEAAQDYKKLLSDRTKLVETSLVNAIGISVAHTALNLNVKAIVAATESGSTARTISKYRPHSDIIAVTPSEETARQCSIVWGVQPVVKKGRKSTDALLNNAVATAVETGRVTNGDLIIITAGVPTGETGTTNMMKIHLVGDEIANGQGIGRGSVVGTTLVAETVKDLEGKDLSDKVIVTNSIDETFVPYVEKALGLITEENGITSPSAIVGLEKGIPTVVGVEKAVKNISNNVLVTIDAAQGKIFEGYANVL
- PROTOCOL SUMMARY: Inhibition of methicillin-resistant Staphylococcus aureus 252 pyruvate kinase by LDH assay

| COMPOUND | IC50 |
| --- | --- |
| C/C(=N\NC(=O)c1cc(Br)cc(Br)c1O)c1cc2ccccc2[nH]1 | 0.074 µM |
| C/C(=N\NC(=O)c1cc(I)ccc1O)c1cc2ccccc2[nH]1 | 0.151 µM |
| C/C(=N\NC(=O)c1cc(Br)ccc1O)c1cc2cc(Cl)ccc2[nH]1 | 0.052 µM |
| C#CCOc1ccccc1C(=O)N/N=C(\C)c1cc2cc(Br)ccc2[nH]1 | 0.064 µM |
| CC(=NNC(=O)c1cc(Br)ccc1O)c1cc2cc(F)c(F)cc2n1C (mixture of isomers) | 0.061 µM |
